Biological target: Geranylgeranyl pyrophosphate synthase (Homo sapiens)
Sequence (O95749 whole entry, the tested form may be a part): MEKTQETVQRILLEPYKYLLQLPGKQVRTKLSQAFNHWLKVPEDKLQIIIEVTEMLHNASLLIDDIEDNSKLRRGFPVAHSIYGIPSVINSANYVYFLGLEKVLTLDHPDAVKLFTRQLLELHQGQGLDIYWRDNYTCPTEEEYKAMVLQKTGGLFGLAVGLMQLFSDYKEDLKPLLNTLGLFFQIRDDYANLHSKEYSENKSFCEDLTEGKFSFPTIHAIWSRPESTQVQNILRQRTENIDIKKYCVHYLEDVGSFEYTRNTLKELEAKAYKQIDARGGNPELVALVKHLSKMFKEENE
Assay: Inhibition of recombinant human N- terminal His-tagged GGPPS (1 to 300 residues) expressed in Escherichia coli
pIC50: −log10 of the molar value.

{"columns": ["compound structure string", "pIC50"],
 "data": [
  ["CC(C)=CCC/C(C)=C/CCc1cn(CC(O)(P(=O)(O)O)P(=O)(O)O)nn1", 6.76],
  ["CC(C)=CCC/C(C)=C\\CCc1cn(CC(O)(P(=O)(O)O)P(=O)(O)O)nn1", 7.12]
]}

###

Target: Farnesyl pyrophosphate synthase (Homo sapiens)
Sequence (P14324 whole entry): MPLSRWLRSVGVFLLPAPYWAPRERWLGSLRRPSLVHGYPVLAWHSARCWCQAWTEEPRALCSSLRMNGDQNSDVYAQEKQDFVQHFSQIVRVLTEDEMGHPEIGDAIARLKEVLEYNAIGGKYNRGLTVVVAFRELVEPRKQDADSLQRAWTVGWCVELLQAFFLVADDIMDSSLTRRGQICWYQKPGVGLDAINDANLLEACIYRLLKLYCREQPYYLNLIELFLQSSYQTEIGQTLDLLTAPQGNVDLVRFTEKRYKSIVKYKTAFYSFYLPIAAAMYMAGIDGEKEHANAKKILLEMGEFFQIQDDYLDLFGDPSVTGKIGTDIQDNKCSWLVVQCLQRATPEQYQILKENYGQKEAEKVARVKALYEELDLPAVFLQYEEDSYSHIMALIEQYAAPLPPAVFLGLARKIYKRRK
pIC50: −log10 of the molar value.
assay endpoint: pIC50

{"columns": ["compound structure string", "measured number"],
 "data": [
  ["CC(C)=CCC/C(C)=C/CCc1cn(CC(O)(P(=O)(O)O)P(=O)(O)O)nn1", 4.30]
]}
